For reference, the following pKi results for Muscarinic acetylcholine receptor M1 (Homo sapiens, UniProt P11229) were taken from various sources.
pKi: −log10 of the molar value.
Measurement name: pKi

{"Compound": "O=C1CCc2ccccc2N1CCCN1CCN(CCc2ccccc2)CC1", "pKi": 5.64}

A: CN1CCC=C(c2nsnc2OCCCCCCCCCC2CCN(CCCN3C(=O)CCc4ccccc43)CC2)C1
B: CN1/C(=C/C=C/C=C/C2=[N+](CCCCCC(=O)NCCCCCCCCN3CCC(COC(=O)Nc4ccc(F)cc4-c4ccc(F)c(Cl)c4)CC3)c3ccccc3C2(C)C)C(C)(C)c2ccccc21
IN: Lab note: record which item had the higher pKi, A or B . Lab note: record the label of whichever item you select.
OUT: A

1: CC(c1ccc(S(=O)(=O)c2ccc(C(C)(C)C)cc2)cc1)N1CCN(C2CCCCC2)CC1 (stereo not given)
2: C[N+]1(C)CCC[C@H]1[C@H]1C[S+]([O-])[C@](c2ccccc2)(C2CCCCC2)O1.[I-] (stereo in doubt; (-)-15)
3: CCN(CC)CCCC(C)Nc1cnc(C(=O)Nc2cc(F)cc3cccnc23)cn1 (stereo not given)
IN: // ranking: key=pKi, reverse=True Answer by listing the labels in the requested order.
OUT: 2, 1, 3
(2: 7.71, 1: 7.07, 3: 6.14)

I: C=C(c1ccc(S(=O)(=O)c2ccc(OC)cc2)cc1)C1CCN(C2CCN(C(=O)CCC)CC2)CC1
II: CC1(C)C(/C=C/C=C/C=C2/N(CCCCS(=O)(=O)O)c3ccccc3C2(C)C)=[N+](CCCCCC(=O)NCCCCCCCCN2CCC(OC(=O)Nc3ccc(F)cc3-c3ccc(F)c(Cl)c3)CC2)c2ccc(S(=O)(=O)[O-])cc21
III: CO/N=C/C1=CCCN(C)C1
IV: Nc1cc(CO)nc(N2CCc3ccccc3C2)c1
V: CC(C1=C(CCN2CCCCC2)Cc2ccccc21)c1ccccn1 (stereo not given)
IN: Write the entries in order, lowest recorded pKi first. Answer by listing the labels in the requested order.
OUT: III, V, IV, I, II
(III: 5.25, V: 5.72, IV: 5.96, I: 7.38, II: 9.14)

P: C=C(c1ccc(S(=O)(=O)c2ccc(OC)cc2)cc1)C1CCN(C2CCN(S(=O)(=O)CCC)CC2)CC1
Q: O=C(CN1CCCc2ccccc21)N1CCCCC1
IN: When the recorded pKi values are compared, which is smaller: that of P or that of Q ? Lab note: record the label of whichever item you select.
OUT: Q
(Q: 5.54, P: 7.59)

I: CN1CCC(OC(=O)N(c2ccccc2)c2ccccc2)C1 (stereo not given)
II: O=C1CCc2ccccc2N1CCCN1CCC(c2ccccc2)CC1
III: NCCCCCCN1CCC(COC(=O)Nc2ccc(F)cc2-c2ccc(F)c(Cl)c2)CC1
IN: Write the entries in order, lowest recorded pKi first. Answer by listing the labels in the requested order.
OUT: II, I, III

###

For reference, the following Ki results for Muscarinic acetylcholine receptor M1 (Homo sapiens, UniProt P11229) were taken from various sources.
Measurement name: Ki (µM)

Worked cases, Ki given:
{"Compound": "C[N+]1(C)CCC[C@H]1[C@H]1C[S+]([O-])C(c2ccccc2)(c2ccccc2)O1.[I-] (stereo in doubt; (-)-11)", "Unit tag": "µM", "Ki": 0.0158}
{"Compound": "CCn1c2ccccc2c2ccc(NCC(=O)N3CCCCC3)cc21", "Unit tag": "µM", "Ki": 43.7}
{"Compound": "O=C1CCc2ccccc2N1CCCN1CCC(CCCCCCCCCC2CCN(CCCN3C(=O)CCc4ccccc43)CC2)CC1", "Unit tag": "µM", "Ki": 0.0295}
{"Compound": "CN(C)c1ccc2c(-c3ccc(-c4cn(CCCCCn5cc(CCCCCCN6CCC(COC(=O)Nc7ccc(F)cc7-c7ccc(F)c(Cl)c7)CC6)nn5)nn4)cc3C(=O)[O-])c3ccc(=[N+](C)C)cc-3oc2c1", "Unit tag": "µM", "Ki": 0.0015}
{"Compound": "CCN(CC)c1ccc2c(-c3ccc(S(=O)(=O)NCCCCCC(=O)NCCOCCOCCN4CCN(CC(=O)N5c6ccccc6C(=O)Nc6cccnc65)CC4)cc3S(=O)(=O)[O-])c3ccc(=[N+](CC)CC)cc-3oc2c1", "Unit tag": "µM", "Ki": 0.0535}
{"Compound": "Cc1nccn1CC#CCOc1ccon1", "Unit tag": "µM", "Ki": 0.0912}

a: C(#CCN1CCCC1)COc1cc(-c2ccccc2)on1
b: CCCCC1CCN(CCCN2C(=O)CCc3ccccc32)CC1
IN: Lab note: record which item had the higher Ki, a or b . Lab note: record the label of whichever item you select.
OUT: a
(a: 6.14 µM, b: 0.316 µM)

###

For reference, the following pKi results for UniProtKB P11229 were taken from various sources.
pKi: −log10 of the molar value.
Measurement name: pKi

{"Molecule": "CC(C1=C(CCN(C(C)C)C(C)C)Cc2ccccc21)c1ccccn1 (stereo in doubt; (+)-19)", "System under test": "UniProtKB P11229", "pKi": 5.23}
{"Molecule": "C[N+]1(CCCC(O)(c2ccccc2)c2ccccc2)CCN(CCCC(O)(c2ccccc2)c2ccccc2)CC1", "System under test": "UniProtKB P11229", "pKi": 5.15}
{"Molecule": "CN1/C(=C/C=C/C=C/C2=[N+](CCCCCC(=O)NCCCCCCN3CCC(OC(=O)Nc4ccc(F)cc4-c4ccc(F)c(Cl)c4)CC3)c3ccccc3C2(C)C)C(C)(C)c2ccccc21", "System under test": "UniProtKB P11229", "pKi": 8.57}
{"Molecule": "O=C(CCC1=[N+]2C(=Cc3ccc(-c4cccs4)n3[B-]2(F)F)C=C1)NCCOCCOCCN1CCN(CC(=O)N2c3ccccc3C(=O)Nc3cccnc32)CC1", "System under test": "UniProtKB P11229", "pKi": 7.34}
{"Molecule": "CN1CCC(OC(=O)N(c2ccccc2)c2ccccc2)CC1", "System under test": "UniProtKB P11229", "pKi": 6.59}
{"Molecule": "C[N+]1(CC#CCOC2=NOCC2)CCc2ccccc2C1 (centres undefined)", "System under test": "UniProtKB P11229", "pKi": 5.16}
{"Molecule": "C#CCCCCCCN1CCC(OC(=O)Nc2ccc(F)cc2-c2ccc(F)c(Cl)c2)CC1", "System under test": "UniProtKB P11229", "pKi": 9.20}
{"Molecule": "CC(C1=C(CCN2CCOCC2)Cc2ccccc21)c1ccccn1 (centres undefined)", "System under test": "UniProtKB P11229", "pKi": 5.36}
{"Molecule": "O=C(NCC1CCN(CC2CCC2)CC1)[C@H]1CCCN1C(=O)[C@@H]1C[C@@H](O)CN1C(=O)CC(c1ccc(F)cc1)(c1ccc(F)cc1)c1ccc(F)cc1", "System under test": "UniProtKB P11229", "pKi": 6.66}
{"Molecule": "Nc1ccnc(N2CCc3ccccc3C2)c1", "System under test": "UniProtKB P11229", "pKi": 5.72}

a: CN(C)CCNC(=O)C1=C(Cc2cccnc2)c2ccccc2C1
b: O=C(NC[C@@H]1CCCNC1)[C@H]1CCCN1C(=O)[C@@H]1C[C@@H](O)CN1C(=O)CC(c1ccc(F)cc1)(c1ccc(F)cc1)c1ccc(F)cc1
IN: When the recorded pKi values are compared, which is smaller: that of a or that of b ? Lab note: record the label of whichever item you select.
OUT: a

P: O=C1CCc2ccccc2N1CCCN1CCC(CCCCCCCCCCCCCO)CC1
Q: CC1CCCCN1C(=O)CCN1CCCc2ccccc21 (centres undefined)
IN: Lab note: record which item had the higher pKi, P or Q . Lab note: record the label of whichever item you select.
OUT: P
(P: 6.73, Q: 5.20)

a: CCN/C(=N\S(=O)(=O)c1cccc(Cl)c1)N1CC2(C=N1)CCNCC2
b: CC(c1ccc(S(=O)(=O)c2ccccc2)cc1)N1CCN(C2CCCCC2)CC1 (centres undefined)
IN: Lab note: record which item had the higher pKi, a or b . Lab note: record the label of whichever item you select.
OUT: b
(b: 8.89, a: 5.00)

a: OCCNc1ccnc(N2CCc3ccccc3C2)c1
b: CC(c1ccc(S(=O)(=O)c2ccccc2)cc1)N1CCN(CCO)CC1 (centres undefined)
IN: Lab note: record which item had the higher pKi, a or b . Lab note: record the label of whichever item you select.
OUT: b
(b: 7.11, a: 5.21)

###

For reference, the following Ki results for Muscarinic acetylcholine receptor M1 (Homo sapiens, UniProt P11229) were taken from various sources.
Measurement name: Ki (µM)

{"Molecule": "CCN(CC)CCOCCOC(=O)C1(c2ccccc2)CCCC1", "Unit tag": "µM", "Ki": 0.076}
{"Molecule": "COc1ccc(CCN(C(=O)OC2CCCN(C)C2)c2ccccc2)cc1OC (stereo not given)", "Unit tag": "µM", "Ki": 4.3}
{"Molecule": "O=C(CCN1CCCc2ccccc21)N1CCC1", "Unit tag": "µM", "Ki": 4.47}
{"Molecule": "O=C(CCN1CCCc2ccccc21)N1CCCC1", "Unit tag": "µM", "Ki": 1.05}
{"Molecule": "NCCCCCCN1CCC(OC(=O)Nc2ccc(F)cc2-c2ccc(F)c(Cl)c2)CC1", "Unit tag": "µM", "Ki": 0.0019}
{"Molecule": "C[C@@H]1OC(=O)[C@H]2C=C3CCCC[C@@H]3[C@@H]([C@@H]3CC4CCC(C)(C)[N+]4(C)O3)[C@@H]12 (stereo not given in full)", "Unit tag": "µM", "Ki": 0.79}

a: CN1CCN(CC(=O)N2c3ccccc3C(=O)Nc3cccnc32)[C@@H]2CCCC[C@@H]21 (relative stereo)
b: O=C1CCc2ccccc2N1CCCN1CCC(CCCCCCCCCCCO)CC1
IN: Lab note: record which item had the higher Ki, a or b . Lab note: record the label of whichever item you select.
OUT: a
(a: 1.45 µM, b: 0.123 µM)
